# MEASURED TARGET: T1, 4H3414-bA
# T1 chain: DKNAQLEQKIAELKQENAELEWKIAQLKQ
# TEST METHOD NOTES: two-hybrid library CCNG1;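 also: natural log of median RNA to DNA barcode read ratio; higher means stronger binding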
OUTCOME MEASURE: interaction score

Using the record for DENAQLEQENAELKQEIAELEWKIAQLKQ [4H1222-bA] , state its measured interaction score. -0.0927

(A) DENAQLKQEIAELKQENAELKWKIAQLEQ [4H1629-bA]
(B) DKNAQLEQEIAELKQKIAELEWENAQLKQ [4H3172-bA]
(C) DENAQLKQKIAELEQEIAELKWENAQLKQ [4H1804-bA]
Arrange the 3 binders from largest to smallest interaction score. List the labels in the requested order. A, C, B
(A: 0.702, C: -0.0712, B: -0.273)
